- TGT: Glucocorticoid receptor (Homo sapiens)
- Sequence (P04150 whole entry): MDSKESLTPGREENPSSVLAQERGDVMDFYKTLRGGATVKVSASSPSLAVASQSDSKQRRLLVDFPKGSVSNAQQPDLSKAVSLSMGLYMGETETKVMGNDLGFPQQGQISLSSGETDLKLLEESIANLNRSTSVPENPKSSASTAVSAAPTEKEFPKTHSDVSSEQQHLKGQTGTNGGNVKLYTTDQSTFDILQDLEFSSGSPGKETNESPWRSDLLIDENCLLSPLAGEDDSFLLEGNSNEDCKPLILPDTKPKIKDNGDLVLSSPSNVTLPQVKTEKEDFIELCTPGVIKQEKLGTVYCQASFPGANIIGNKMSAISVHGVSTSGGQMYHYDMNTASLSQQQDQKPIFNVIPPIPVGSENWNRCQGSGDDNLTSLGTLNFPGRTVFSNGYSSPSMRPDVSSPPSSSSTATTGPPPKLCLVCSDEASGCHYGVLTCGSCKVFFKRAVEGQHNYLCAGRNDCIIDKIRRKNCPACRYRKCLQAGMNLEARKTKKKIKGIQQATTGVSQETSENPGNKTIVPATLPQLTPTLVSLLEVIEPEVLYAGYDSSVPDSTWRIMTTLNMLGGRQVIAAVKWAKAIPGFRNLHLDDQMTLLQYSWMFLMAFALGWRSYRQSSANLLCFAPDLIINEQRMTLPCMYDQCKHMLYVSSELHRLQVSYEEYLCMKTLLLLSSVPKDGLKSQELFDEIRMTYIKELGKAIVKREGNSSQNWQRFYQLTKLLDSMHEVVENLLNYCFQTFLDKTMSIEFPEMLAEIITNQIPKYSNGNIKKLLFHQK
- TEST SUMMARY: Agonist activity at Glucocorticoid receptor (unknown origin) incubated for 2 hrs by TR-FRET assay
EXPERIMENTAL ENDPOINT: EC50

                                   compound  experimental_endpoint  observed_result
0  Cn1nc(C(=O)N(Cc2ccccc2)Cc2ccc(C(=O)O)cc2)c2c1-c1cc(Cl)ccc1OC2 [NIDUFEXOR]                   EC50          > 30 µM

----------
- TEST SUMMARY: AUC in Wistar rat at 10 mg/kg, po
- Type: ADME, organism-based
- CONDITIONS USED: in vivo
EXPERIMENTAL ENDPOINT: AUC (µM·h)

In [3]: df
Out[3]:
                                   molecule  observed_result
0  Cn1nc(C(=O)N(Cc2ccccc2)Cc2ccc(C(=O)O)cc2)c2c1-c1cc(Cl)ccc1OC2 [NIDUFEXOR]             25.4
